target: Beta-lactamase P99 (Enterobacter cloacae) (UniProt P05364); test: Time dependent inhibition of hydrolysis of nitrocefin after 5 min pre-incubation with P99 beta-lactamases (class C)
Sequence (P05364 whole entry, looked up): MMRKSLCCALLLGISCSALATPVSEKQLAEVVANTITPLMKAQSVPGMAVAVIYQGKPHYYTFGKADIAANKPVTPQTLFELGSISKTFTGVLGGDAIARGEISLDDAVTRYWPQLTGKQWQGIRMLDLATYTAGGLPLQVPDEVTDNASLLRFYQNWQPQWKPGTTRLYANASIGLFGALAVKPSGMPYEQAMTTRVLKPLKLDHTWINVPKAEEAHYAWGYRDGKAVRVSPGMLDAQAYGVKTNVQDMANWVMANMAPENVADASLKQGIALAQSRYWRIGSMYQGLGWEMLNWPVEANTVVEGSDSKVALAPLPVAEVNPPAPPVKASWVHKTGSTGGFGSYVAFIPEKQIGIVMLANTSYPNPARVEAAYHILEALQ
QUANTITY_KIND: IC50
A complete answer gives the number and then names the unit.

Fill in reported IC50 for this entry: CC[C@@H]1C(=O)N2C[C@@H]1C=C(OC)C2C(=O)OCc1ccc([N+](=O)[O-])cc1 (stereo partly specified)
210 µM
